biological target: APP-Avi-soluble human LOX-1(61-273) (human, UniProt P78380 61-273); assay: SET, IgG vs soluble human LOX-1
Entries and their Kd values follow.
Form entry: value (nM) — number only.

>  <BINDER>
MOR022025 (antibody, human IgG1, lambda, L234A L235A, V domains shown, Human IgG1f LALA; also called MOR20225; MOR020225) VH: QVQLLESGGGLVQPGGSLRLSCAASGFTFSDYALHWVRQAPGKGLEWVSVISYQGGFIYYADSVKGRFTISRDNSKNTLYLQMNSLRAEDTAVYYCARSPGLTSYHDSWGQGTLVTVSS VL: QSVLTQPPSVSGAPGQRVTISCSGSSSNIGSNYVSWYQQLPGTAPKLLIHSTSHRPSGVPDRFSGSKSGTSASLAITGLQAEDEADYYCQSWDYESERVVFGGGTKLTVLG

>  <Kd (nM)>
0.0003

$$$$

Moving on to another binder below.
Query: What Kd value was documented for this binder, MOR020133 (antibody, human IgG1, lambda, L234A L235A, V domains shown, also called MOR20133) VH: QVQLVQSGAEVKKPGESLKISCKGSGYSFTNYWIAWVRQMPGKGLEWMGRIFPGDSTTTYSPSFQGQVTISADKSISTAYLQWSSLKASDTAMYYCARGKRGATHPTQYEGWEVYGFDPWGQGTLVTVSS VL: DIELTQPPSVSVSPGQTASITCSGDALGGKYASWYQQKPGQAPVLVIYDDNKRPSGIPERFSGSNSGNTATLTISGTQAEDEADYYCQSWAFYSGVFGGGTKLTVLG ?
Response: 0.144
